Reported values of pKd for individual entries
- TARGET_DESC: T1, Len(1-22) monomer peptide (Homo sapiens (Human), UniProt P06312 21-42)
- T1 construct: Analyte in SPR; on beads in the pulldown assay; also called Vκ4(LEN(1-22) beads)
- T1 peptide: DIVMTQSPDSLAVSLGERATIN
- TEST_DESCRIPTION: SPR, antibody as ligand, peptide as analyte
Just the number, please; pKd means minus log10 of the concentration in mol/L.

Solved entries:
VH9 + VL4-N33E (antibody, V domains shown, Humanized 11-1F4 variant) VH: QVQLQESGPGLVKPSETLSLTCTVSGFSLSSYGVSWIRQPPGKGLEWLGVIWGDGSTNYHPNLMSRVTISVDTSKSQVLFKLSSVTAADTAVYYCATLDYWGQGTSVTVSS VL: DVVMTQSPLSLPVTLGQPASISCRSSQSLVHREGNTYLHWFQQRPGQSPRLLIYKVSNRFSGVPDRFSGSGSGTDFTLKISRVEAEDVGVYFCFQTTYVPNTFGGGTKLEIK: 6.97
VH9-D54S + VL4 (antibody, V domains shown, Humanized 11-1F4 variant) VH: QVQLQESGPGLVKPSETLSLTCTVSGFSLSSYGVSWIRQPPGKGLEWLGVIWGSGSTNYHPNLMSRVTISVDTSKSQVLFKLSSVTAADTAVYYCATLDYWGQGTSVTVSS VL: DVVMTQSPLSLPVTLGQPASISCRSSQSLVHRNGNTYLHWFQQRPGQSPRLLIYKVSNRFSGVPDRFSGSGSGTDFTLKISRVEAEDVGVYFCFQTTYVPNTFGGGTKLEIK: 7.22

Please look up its pKd: VH9 + VL4-N33H (antibody, V domains shown, Humanized 11-1F4 variant) VH: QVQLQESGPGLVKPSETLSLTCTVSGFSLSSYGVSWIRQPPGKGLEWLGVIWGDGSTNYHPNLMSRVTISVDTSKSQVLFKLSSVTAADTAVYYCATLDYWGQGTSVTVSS VL: DVVMTQSPLSLPVTLGQPASISCRSSQSLVHRHGNTYLHWFQQRPGQSPRLLIYKVSNRFSGVPDRFSGSGSGTDFTLKISRVEAEDVGVYFCFQTTYVPNTFGGGTKLEIK
7.25
